assayed_system: cynomolgus monkey IL-2Rα/CD25 subunit (cynomolgus monkey) (UniProt H6WS54)
Sequence (H6WS54 entry or part of it): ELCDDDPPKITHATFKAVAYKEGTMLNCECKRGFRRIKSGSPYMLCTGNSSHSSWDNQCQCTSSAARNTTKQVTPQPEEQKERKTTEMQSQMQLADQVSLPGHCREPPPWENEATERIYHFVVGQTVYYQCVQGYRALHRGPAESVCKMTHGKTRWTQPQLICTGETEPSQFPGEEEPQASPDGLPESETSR
method: ELISA, monovalent VHH-hFc
result_type: pEC50
API: returns pEC50 as number; meaning -log10 of concentration in mol/L.

binder	pEC50
8-MP01C12 VHH-hFc, monospecific monovalent (Fc fusion, part only; not given: Both Fc arms and linker, not shown: another chain or arm of the molecule; a dimerising Fc or GST; small tags and cut ends) VHH: QVQLVESGGGLVQPGGSLRLSCATSGFTFSNNFMSWVRQAPGKGLEFVSTISYGGESTTYAEAVKGRFTISRDNAKNTLYLQMNNLKPEDTAIYYCAKATSYTSIRGAPRGQGTQVTVSS	10.16

**Query** Which measured pEC50 value corresponds to 7-MP01G08 VHH-hFc, monospecific monovalent (Fc fusion, part only; not given: Both Fc arms and linker, not shown: another chain or arm of the molecule; a dimerising Fc or GST; small tags and cut ends) VHH: EVQLVESGGGLVQAGGSLRLSCAASGRAFSMYNMGWFRQAPGKEREFVAATGWSGANTPYADSVKGRFTISRDNTQNTVYLQMNSLKPEDTATYYCAADSIRLRSDVTRIPLEYDYWGQGTQVTVSS ?
**Result** 9.88

**Query** Please do the same for 5-MP01F05 VHH-hFc, monospecific monovalent (Fc fusion, part only; not given: Both Fc arms and linker, not shown: another chain or arm of the molecule; a dimerising Fc or GST; small tags and cut ends) VHH: EVQLVESGGGLVQAGGSLRLSCAASIRAFTTWSMAWFRQAPGKEREYVARINVSGSVTYYADFVKGRFTISRDNAKKTMYLEMNNLKPEDTALYYCAADRTGVGTNDYNYWGQGTQVTVSS as well.
**Result** 9.87

**Query** Same question, 6-MP01G05 VHH-hFc, monospecific monovalent (Fc fusion, part only; not given: Both Fc arms and linker, not shown: another chain or arm of the molecule; a dimerising Fc or GST; small tags and cut ends) VHH: QVQLQESGGGLVQAGGSLRLSCAASGRTFSSYAMGWFRQAPGKEREFVAVISWNVDNTEYTDSVKGRFTISRDNDKNMVYLQMNSLKPEDTAVYYCAADSIPLSSDMSPTATEYGYWGQGTQVTVSS this time
**Result** 9.50
